- Tested on: HOP-62
- Assay overview: Antiproliferative activity against human HOP62 cells by SRB assay
- Type: functional
Endpoint: GI50 (µM)
# unit: µM | format: bare number

Compound	Target under test	GI50, µM
O=C1c2ccccc2-c2c1c1ccccc1c(=O)n2CC(O)CO (racemic)	HOP-62	7.76
O=C1c2ccccc2-c2c1c1ccccc1c(=O)n2C[C@H](O)CO	HOP-62	5.01
COc1cc2c3c(n(C)c(=O)c2cc1OC)-c1cc2c(cc1C3=O)OCO2	HOP-62	1.3
O=C1c2ccccc2-c2c1c1ccccc1c(=O)n2C[C@H](O)[C@H](O)[C@H](O)[C@H](O)CO	HOP-62	3.23
O=C(CO)Cn1c2c(c3ccccc3c1=O)C(=O)c1ccccc1-2	HOP-62	40.7
O=C1c2ccccc2-c2c1c1ccccc1c(=O)n2C[C@H](O)[C@@H](O)[C@H](O)CO	HOP-62	3.23

Next item in the queue.
Hi! What's the reported GI50 for CC(O)Cn1c2c(c3ccccc3c1=O)C(=O)c1ccccc1-2 (racemic) on HOP-62?
3.46
